Values compiled from patent US20090018106A1.

# protocolDescription: Single intravenous dose escalation of P5P, plasma pharmacokinetics (Examples Two and Three)
# Assay type: in vivo, human
# conditionsUsed: both sexes, human, plasma, iv, 20 mg/kg, Group 4, P5P 20 mg/kg single iv; plasma PA; mean
metric: Cmax (ng/mL)
Value expressed in ng/mL; do not type the unit.

Q) Would you mind telling me what Cmax value was observed for Cc1ncc(CO)c(C(=O)O)c1O ?
A) 16100

* * *

# protocolDescription: Single intravenous dose escalation of P5P, plasma pharmacokinetics (Examples Two and Three)
# Assay type: in vivo, human
# conditionsUsed: both sexes, human, plasma, iv, 20 mg/kg, Group 4, P5P 20 mg/kg single iv; plasma PAL; mean
metric: Tmax (min)
Value expressed in min; do not type the unit.

Q) Would you mind telling me what Tmax value was observed for Cc1ncc(CO)c(C=O)c1O [PAL, pyridoxal] ?
A) 19.2
